- Study system: Kappa-type opioid receptor (Homo sapiens)
- Sequence (P41145 whole entry): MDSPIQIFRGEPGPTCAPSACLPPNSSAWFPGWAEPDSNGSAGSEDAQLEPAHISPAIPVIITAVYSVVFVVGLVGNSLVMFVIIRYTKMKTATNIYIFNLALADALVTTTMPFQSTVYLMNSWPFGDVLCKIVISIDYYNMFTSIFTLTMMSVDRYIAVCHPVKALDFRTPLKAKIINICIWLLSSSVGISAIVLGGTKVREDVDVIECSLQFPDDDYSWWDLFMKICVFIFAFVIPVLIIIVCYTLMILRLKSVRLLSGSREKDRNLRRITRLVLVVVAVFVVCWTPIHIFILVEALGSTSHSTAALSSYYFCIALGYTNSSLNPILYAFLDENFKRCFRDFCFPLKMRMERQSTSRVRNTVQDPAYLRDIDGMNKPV
- Procedure details: Displacement of [3H]-U69593 from recombinant human kappa opioid receptor expressed in CHO cell membrane incubated for 60 mins by liquid scintillation counting method
Numbered stars: 1 amine (or outer) side, 2 acyl side, 3 side chain; on linkers, the order of the positions; unused ones are H or OH. Square brackets hold non-standard residues; d marks the D form. Peptide text beside a SMILES is read from it. X1 = O=C1[C@@H](N[*:1])Cc2ccccc2CN1CCC(=O)[*:2]; Dmt = Cc1cc(O)cc(C)c1C[C@H](N)C(=O)O; mTyr = N[C@@H](Cc1cccc(O)c1)C(=O)O; Tle = CC(C)(C)[C@H](N)C(=O)O
Value type: pKi
Give bare numbers, as −log10 of the molar value.

1) Cc1cc(O)cc(C)c1C[C@H](N)C(=O)N[C@H](CCCNC(=N)N)C(=O)N[C@H]1Cc2ccccc2CN(CCC(=O)N[C@@H](CCCCN)C(=O)N[C@@H](CCCCN)C(=O)N2CCC[C@H]2C(=O)N[C@@H](Cc2cccc(O)c2)C(=O)N[C@H](C(=O)N[C@@H](CC(C)C)C(=O)O)C(C)(C)C)C1=O (H-[Dmt][dR][X1]KKP[mTyr][Tle]L-OH)
7.15

Value of measured pKi for the entry Cc1cc(O)cc(C)c1C[C@H](N)C(=O)N[C@H](CCCNC(=N)N)C(=O)N[C@H]1Cc2ccccc2CN(CCC(=O)N[C@@H](CCCNC(=N)N)C(=O)N[C@@H](CCCNC(=N)N)C(=O)N2CCC[C@H]2C(=O)N[C@@H](Cc2ccc(O)cc2)C(=O)N[C@H](C(=O)N[C@@H](CC(C)C)C(=O)O)C(C)(C)C)C1=O (H-[Dmt][dR][X1]RRPY[Tle]L-OH) : 7.10
